Reference for the values: patent US20070010428A1

- experimental-target: Stat3 (UniProt P40763)
- Sequence (P40763 whole entry): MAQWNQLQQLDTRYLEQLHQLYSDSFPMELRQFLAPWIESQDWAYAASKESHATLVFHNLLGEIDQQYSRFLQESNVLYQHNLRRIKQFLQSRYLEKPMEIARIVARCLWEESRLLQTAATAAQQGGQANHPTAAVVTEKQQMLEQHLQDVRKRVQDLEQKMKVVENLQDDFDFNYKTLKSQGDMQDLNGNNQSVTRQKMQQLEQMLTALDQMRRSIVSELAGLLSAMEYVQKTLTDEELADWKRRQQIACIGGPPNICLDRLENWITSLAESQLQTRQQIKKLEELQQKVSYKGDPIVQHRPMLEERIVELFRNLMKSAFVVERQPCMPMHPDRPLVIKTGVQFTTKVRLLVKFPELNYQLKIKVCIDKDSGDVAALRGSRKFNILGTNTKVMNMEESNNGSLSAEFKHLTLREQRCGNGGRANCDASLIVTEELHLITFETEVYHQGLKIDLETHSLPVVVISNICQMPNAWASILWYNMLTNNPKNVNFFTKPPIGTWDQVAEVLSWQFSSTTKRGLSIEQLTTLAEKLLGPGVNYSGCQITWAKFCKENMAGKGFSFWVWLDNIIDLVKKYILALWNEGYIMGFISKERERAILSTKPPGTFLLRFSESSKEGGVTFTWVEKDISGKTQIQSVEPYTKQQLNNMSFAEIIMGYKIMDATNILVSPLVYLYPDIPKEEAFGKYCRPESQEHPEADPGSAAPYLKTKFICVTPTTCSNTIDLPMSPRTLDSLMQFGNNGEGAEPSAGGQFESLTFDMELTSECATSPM
- run-description: fluorescence polarization competition
Provide the reported pIC50 of each item.
Please note pIC50 is a logarithmic value: minus log10 of concentration in mol/L. Answer with that number alone.

Just so you know, measured pIC50 for F2PmCinn-Cha-Pro-Gln-NHBn (8, PM-88D) came out at 5.70

Just so you know, measured pIC50 for Ac-pTyr-Leu-methanoPro-Gln-Thr-NH2 (14, DRCIV-39B) came out at 6.70

Just so you know, measured pIC50 for pInd-Cha-Pro-Gln-NHBn (9, PM-67D) came out at 7.00

Just so you know, measured pIC50 for pCinn-Cha-Pro-Gln-NHBn (7, PM-66D) came out at 7.30

Just so you know, measured pIC50 for pCinn-Leu-Pro-Gln-Thr-NH2 (5, PM-50D) came out at 6.96
